- System: redroot pigweed (Amaranthus retroflexus L.)
- Run description: Test Example 1: foliar treatment, growth inhibition rate, redroot pigweed
- Format: in vivo
- Test conditions: 31 g/ha active ingredient, visually observed 17th to 23rd day after application
Value type: Growth inhibition rate (%) redroot pigweed

{"Compound": "CCSC(=O)Oc1c(C(=O)c2ccc(S(C)(=O)=O)c(C(=O)OC)c2C)cnn1CC", "Value reported": 95}
{"Compound": "CCn1ncc(C(=O)c2ccc(S(C)(=O)=O)c(C(=O)OC)c2C)c1OC(=O)SC(C)C", "Value reported": 100}
{"Compound": "COCc1c(S(C)(=O)=O)ccc(C(=O)c2cnn(C)c2OC(=O)SC)c1Cl", "Value reported": 100}
{"Compound": "CCOC(=O)c1c(S(C)(=O)=O)ccc(C(=O)c2cnn(CC)c2OC(=O)SC)c1C", "Value reported": 100}
{"Compound": "CCSC(=O)Oc1c(C(=O)c2ccc(S(C)(=O)=O)c(OCC3CCCCO3)c2C)cnn1C (stereo not drawn)", "Value reported": 95}
{"Compound": "CCOCCOc1c(S(C)(=O)=O)ccc(C(=O)c2cnn(C)c2OC(=O)SCC)c1C", "Value reported": 95}
{"Compound": "COCCOc1c(S(C)(=O)=O)ccc(C(=O)c2cnn(C)c2OC(=O)SC(C)C)c1C", "Value reported": 100}
{"Compound": "CCSC(=O)Oc1c(C(=O)c2ccc(S(C)(=O)=O)c(CC(=O)OC)c2C)cnn1C", "Value reported": 80}
{"Compound": "COC(=O)c1c(S(C)(=O)=O)ccc(C(=O)c2cnn(C)c2OC(=O)SCc2ccccc2)c1C", "Value reported": 10}

====

- Test system: velvetleaf (Abutilon theophrasti MEDIC.)
- Run description: Test Example 1: foliar treatment, growth inhibition rate, velvetleaf
- Format: in vivo
- Test conditions: Abutilon theophrasti, 31 g/ha active ingredient, visually observed 17th to 23rd day after application
Value type: pest or weed control at 31 g/ha (%)

{"Compound": "CCSC(=O)Oc1c(C(=O)c2ccc(S(C)(=O)=O)c(OCCOC)c2C)cnn1CC [Compound No. 16]", "Value type": "pest or weed control at 31 g/ha", "Value reported": 100}
{"Compound": "CCSC(=O)Oc1c(C(=O)c2ccc(S(C)(=O)=O)c(C(=O)OC)c2C)cnn1CC [Compound No. 2]", "Value type": "pest or weed control at 31 g/ha", "Value reported": 95}
{"Compound": "CCSC(=O)Oc1c(C(=O)c2ccc(S(C)(=O)=O)c(C(=O)OC)c2C)cnn1C [Compound No. 1]", "Value type": "pest or weed control at 31 g/ha", "Value reported": 100}
{"Compound": "CCSC(=O)Oc1c(C(=O)c2ccc(S(C)(=O)=O)c(OCCOC)c2C)cnn1C [Compound No. 55]", "Value type": "pest or weed control at 31 g/ha", "Value reported": 100}
